FYI, the data here is from patent US20250345277A1.

Test: Size and polydispersity index PDI of lipid nanoparticles (Malvern Zetasizer Nano ZS)
Type: physicochemical
Conditions: LNP ionizable lipid/DOPE/cholesterol/DSPE-PEG2000 35/16/46.5/2.5 mol% encapsulating EGFP mRNA
outcomeMeasure: PDI

CCCCCCCCCCCCCCC(O)CN(CCN1CCN(CCN(CCN(CC(O)CCCCCCCCCCCCCC)CC(O)CCCCCCCCCCCCCC)CCN(CC(O)CCCCCCCCCCCCCC)CC(O)CCCCCCCCCCCCCC)CC1)CC(O)CCCCCCCCCCCCCC (stereo not drawn) | 0.183
CCCCCCCCCCCCCCCCC(O)CN(CCOCCOCCOCCN(CCOCCOCCOCCN(CC(O)CCCCCCCCCCCCCCCC)CC(O)CCCCCCCCCCCCCCCC)CCN1CCN(CCO)CC1)CC(O)CCCCCCCCCCCCCCCC (stereo not drawn) | 0.182
CCCCCCCCCCC(O)CN(CCN(CCN1CCN(CCO)CC1)CCN(CC(O)CCCCCCCCCC)CC(O)CCCCCCCCCC)CC(O)CCCCCCCCCC (stereo not drawn) | 0.114
CCCCCCCCCCC(O)CN(CCOCCN(CCOCCN(CC(O)CCCCCCCCCC)CC(O)CCCCCCCCCC)CCN1CCN(CCO)CC1)CC(O)CCCCCCCCCC (stereo not drawn) | 0.105

(A) CCCCCCCCCCCCCCC(O)CN(CCOCCOCCOCCN(CCOCCOCCOCCN(CC(O)CCCCCCCCCCCCCC)CC(O)CCCCCCCCCCCCCC)CCN1CCN(CCO)CC1)CC(O)CCCCCCCCCCCCCC (stereo not drawn)
(B) CCCCCCCCCCCCC(O)CN(CCOCCOCCN(CCOCCOCCN(CC(O)CCCCCCCCCCCC)CC(O)CCCCCCCCCCCC)CCN1CCN(C)CC1)CC(O)CCCCCCCCCCCC (stereo not drawn)
# input Between the two listed entries A and B , which has its PDI at the higher number? Your answer should be the label attached to the chosen record.
# output B
(B: 0.180, A: 0.085)

(I) CCCCCCCCCCCCCCCCC(O)CN(CCOCCOCCOCCN(CCOCCOCCOCCN(CC(O)CCCCCCCCCCCCCCCC)CC(O)CCCCCCCCCCCCCCCC)CCN1CCN(C)CC1)CC(O)CCCCCCCCCCCCCCCC (stereo not drawn)
(II) CCCCCCCCCCC(O)CN(CCOCCOCCN(CCOCCOCCN(CC(O)CCCCCCCCCC)CC(O)CCCCCCCCCC)CCN1CCN(CCO)CC1)CC(O)CCCCCCCCCC (stereo not drawn)
# input Hey, between I and II which has a smaller measured PDI? Give the label of your selection.
# output II

(P) CCCCCCCCCCCCC(O)CN(CCOCCN(CCOCCN(CC(O)CCCCCCCCCCCC)CC(O)CCCCCCCCCCCC)CCN1CCN(CCOCCN(CC(O)CCCCCCCCCCCC)CC(O)CCCCCCCCCCCC)CC1)CC(O)CCCCCCCCCCCC (stereo not drawn)
(Q) CCCCCCCCCCCCCCC(O)CN(CCOCCN(CCOCCN(CC(O)CCCCCCCCCCCCCC)CC(O)CCCCCCCCCCCCCC)CCN1CCN(CCO)CC1)CC(O)CCCCCCCCCCCCCC (stereo not drawn)
# input Lower value for measured PDI? Options: P , Q When you have decided, please share the label of that item.
# output Q
